Provenance of the data: ChEMBL document CHEMBL1201862

tested system: Aminopeptidase N (Plasmodium falciparum FcB1/Columbia)
Sequence (O96935 whole entry): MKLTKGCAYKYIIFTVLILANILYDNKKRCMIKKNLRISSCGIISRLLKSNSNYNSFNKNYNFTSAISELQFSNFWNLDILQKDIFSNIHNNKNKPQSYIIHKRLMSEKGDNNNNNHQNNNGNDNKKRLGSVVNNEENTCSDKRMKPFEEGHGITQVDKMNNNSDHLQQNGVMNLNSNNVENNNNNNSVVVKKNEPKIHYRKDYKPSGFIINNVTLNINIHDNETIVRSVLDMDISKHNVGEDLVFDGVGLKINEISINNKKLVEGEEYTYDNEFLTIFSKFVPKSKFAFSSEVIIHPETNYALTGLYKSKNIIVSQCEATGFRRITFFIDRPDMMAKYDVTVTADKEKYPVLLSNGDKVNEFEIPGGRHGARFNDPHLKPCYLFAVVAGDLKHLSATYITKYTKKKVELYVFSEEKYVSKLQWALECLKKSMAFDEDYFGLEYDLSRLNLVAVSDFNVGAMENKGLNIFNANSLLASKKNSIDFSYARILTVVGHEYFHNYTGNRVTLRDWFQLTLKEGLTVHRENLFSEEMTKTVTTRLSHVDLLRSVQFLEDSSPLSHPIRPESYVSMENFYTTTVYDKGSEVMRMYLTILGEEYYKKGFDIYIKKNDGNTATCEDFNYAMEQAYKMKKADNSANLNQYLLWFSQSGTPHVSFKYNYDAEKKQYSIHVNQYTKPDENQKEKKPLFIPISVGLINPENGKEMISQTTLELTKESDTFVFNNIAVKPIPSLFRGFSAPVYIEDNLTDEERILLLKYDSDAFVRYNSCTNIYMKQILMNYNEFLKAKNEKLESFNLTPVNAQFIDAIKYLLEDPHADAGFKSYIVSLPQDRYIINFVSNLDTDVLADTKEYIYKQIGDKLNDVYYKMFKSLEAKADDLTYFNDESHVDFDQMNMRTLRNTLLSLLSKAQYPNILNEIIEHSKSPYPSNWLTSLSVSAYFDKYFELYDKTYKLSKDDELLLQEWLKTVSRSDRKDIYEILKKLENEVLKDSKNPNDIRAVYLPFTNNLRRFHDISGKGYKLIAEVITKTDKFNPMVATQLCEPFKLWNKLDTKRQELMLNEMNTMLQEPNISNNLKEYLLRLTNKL
measurement protocol: P. falciparum M1AAP inhibitors, biochemical, fluorogenic H-Leu-NHMec substrate, 1536-well (AID 1445)
Set-up: species or system Plasmodium falciparum 3D7, 3D7
Active and inactive are the calls of the source. No rule for the calls is given here.
measurement kind: IC50

Before answering, review these 3 worked examples.
IC50 lookup needed for Cc1ccc(CSc2nnc(SCC(=O)N/N=C/c3ccccc3OCC(=O)O)s2)cc1 , thanks.
30.6 µM (active)

Next record, please: O=C(Cn1nnc2ccccc2c1=O)N[C@@H](Cc1c[nH]c2ccccc12)C(=O)O
71.6 µM (active)

Moving on to the next compound: CCc1nnc(NS(=O)(=O)c2ccc(NC(=S)NC(=O)c3ccc(OC)cc3)cc2)s1
60.5 µM (active)

Others:
State the recorded IC50 for this entry: Nc1nonc1C(=O)N/N=C/c1ccc(-c2ccc(Cl)c(C(=O)O)c2)o1
43.8 µM (active)

Please give the result for Cc1nn(-c2ccccc2)c(Cl)c1/C=C1\SC(=S)NC1=O too.
46.8 µM (active)

Again, but for Cc1ccc(-c2nn(C)c(=O)c3ccccc23)cc1CNC(=O)c1ccco1
21.1 µM (active)
